B1: glmS ribozyme (parent)
chain: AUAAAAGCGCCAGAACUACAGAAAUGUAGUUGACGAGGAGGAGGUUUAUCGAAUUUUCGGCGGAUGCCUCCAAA

Variants of: B1
experiment: self-cleavage kobs at 10000 uM GlcN6P; higher = faster cleavage; RNA array
assay conditions: with glucosamine-6-phosphate
Fewer inactive variants are shown than the library holds.
Answer each item with its documented self-cleavage kobs at 10000 uM GlcN6P.
One number for each entry, in s⁻¹.

C11A A12G = 0.000119

For the 8 variants below, give their self-cleavage kobs at 10000 uM GlcN6P values.
1. A42U U54C U55C
2. C11A A53G
3. G13A U47A
4. U46A C71A
5. A6C C67U
6. A14G C58G
7. U31C U57C
8. C16U U46G

1: 8.78e-05; 2: 0.000164; 3: 0.000349; 4: 0.000724; 5: 2.36e-05; 6: 0.000276; 7: 5.52e-05; 8: 0.00531

FYI, the data here is from the supplement of paper PMC7125110.
